- Tested on: Escherichia coli
- MEASUREMENT_DESCRIPTION: Antimicrobial activity against Escherichia coli IFO 3301 at 200 ug/disc measured after 24 hrs by agar disc-diffusion method
- Assay type: functional
- MEASUREMENT_PARAMETERS: IFO 3301, 24 h, read-out: DIZ
RESULT_TYPE: zone of inhibition at 200 µg/disc (mm)
Please give a number only; it is taken to be in mm.

Record `COc1cc2nc(SCc3cc(OC)c(OC)c(OC)c3)n(-c3ccc(Cl)cc3)c(=O)c2cc1OC` ; system Escherichia coli; zone of inhibition at 200 µg/disc = 18

Recorded zone of inhibition at 200 µg/disc for `COc1ccc(CSc2nc3ccc(Cl)cc3c(=O)n2-c2ccc(OC)cc2OC)cc1` on Escherichia coli was 8

# zone of inhibition at 200 µg/disc measured on Escherichia coli for item `COc1cc2nc(SCc3cc(OC)c(OC)c(OC)c3)n(Cc3ccccc3)c(=O)c2cc1OC` = 16

Measured zone of inhibition at 200 µg/disc (Escherichia coli), entry `COc1ccc(CSc2nc3cc(OC)c(OC)cc3c(=O)n2-c2ccc(Cl)cc2)cc1` : 15

Value (zone of inhibition at 200 µg/disc, Escherichia coli) for record `COc1ccc(CSc2nc3ccc(Cl)cc3c(=O)n2-c2ccccc2)cc1` = 8

Sample `COc1cc(CSc2nc3ccc(Cl)cc3c(=O)n2-c2ccccc2)cc(OC)c1OC` , system: Escherichia coli. Its zone of inhibition at 200 µg/disc is 16

So the reported zone of inhibition at 200 µg/disc for `COc1cc2nc(SCc3cc(OC)c(OC)c(OC)c3)n(-c3ccccc3)c(=O)c2cc1OC` , on Escherichia coli, turned out to be 18

Assay Escherichia coli, sample `COc1ccc(CSc2nc3ccc(C)cc3c(=O)n2-c2ccccc2)cc1` , zone of inhibition at 200 µg/disc read: 16

Noted zone of inhibition at 200 µg/disc for `COc1ccc(CSc2nc3cc(OC)c(OC)cc3c(=O)n2-c2ccccc2)cc1` , tested on Escherichia coli: 14

Simply: O=C(O)c1cn(C2CC2)c2cc(N3CCNCC3)c(F)cc2c1=O [CIPROFLOXACIN] , Escherichia coli, zone of inhibition at 200 µg/disc = 38

###

- System: Staphylococcus aureus
- MEASUREMENT_DESCRIPTION: Antimicrobial activity against Staphylococcus aureus IFO 3060 measured after 24 hrs by microdilution method
- Type: functional
- MEASUREMENT_PARAMETERS: IFO 3060, 24 h
RESULT_TYPE: MIC (µg/mL)
Entry rule: numbers only, all in µg/mL.

Looking up `COc1cc2nc(SCc3cc(OC)c(OC)c(OC)c3)n(-c3ccc(Cl)cc3)c(=O)c2cc1OC` , I found its MIC recorded as 4

Briefly, MIC measured for O=C(O)c1cn(C2CC2)c2cc(N3CCNCC3)c(F)cc2c1=O [CIPROFLOXACIN] : 0.5

The recorded MIC for entry `COc1cc2nc(SCc3cc(OC)c(OC)c(OC)c3)n(-c3ccccc3)c(=O)c2cc1OC` equals 8

Recorded MIC (molecule `COc1ccc(CSc2nc3cc(OC)c(OC)cc3c(=O)n2-c2ccccc2)cc1` ): 2

`COc1cc2nc(SCc3cc(OC)c(OC)c(OC)c3)n(Cc3ccccc3)c(=O)c2cc1OC` yielded MIC of 4

So, `COc1ccc(CSc2nc3ccc(C)cc3c(=O)n2-c2ccccc2)cc1` ? Its MIC was 4

molecule `COc1ccc(CSc2nc3cc(OC)c(OC)cc3c(=O)n2-c2ccc(Cl)cc2)cc1` , MIC observed: 4

So, `COc1cc(CSc2nc3ccc(Cl)cc3c(=O)n2-c2ccccc2)cc(OC)c1OC` ? Its MIC was 8

Entry `COc1ccc(CSc2nc3ccc(Cl)cc3c(=O)n2-c2ccc(OC)cc2OC)cc1` , MIC reported as 8
